We begin with a simple list: items and their reported IC50.
Test system: Enterococcus
Experiment: Antibacterial activity against vancomycin resistant Enterococcus ATCC MP-1 assessed as inhibition of bacterial growth by CLSI method
Assay type: functional, organism-based
Give your result in µg/mL as a bare value.

1. CC(C)(C)OC(=O)N[C@@H](Cc1c[nH]c(-c2ccc(-c3ccccc3)cc2)n1)C(=O)N[C@@H](Cc1c[nH]c2ccccc12)C(=O)N[C@@H](CCCNC(=N)N)C(=O)NCc1ccccc1    8.82
2. CCCCc1ccc(-c2nc(C[C@H](N)C(=O)N[C@@H](Cc3c[nH]c4ccccc34)C(=O)N[C@@H](CCCNC(=N)N)C(=O)NCc3ccccc3)c[nH]2)cc1.Cl.Cl    9.99
3. Cl.Cl.N=C(N)NCCC[C@H](NC(=O)[C@H](Cc1c[nH]c2ccccc12)NC(=O)[C@@H](N)Cc1c[nH]c(-c2ccc(-c3ccccc3)cc2)n1)C(=O)NCc1ccccc1    8.33

IC50 lookup needed for `CCc1ccc(-c2nc(C[C@H](NC(=O)OC(C)(C)C)C(=O)N[C@@H](Cc3c[nH]c4ccccc34)C(=O)N[C@@H](CCCNC(=N)N)C(=O)NCc3ccccc3)c[nH]2)cc1` , thanks.
14.9
